# test_target: Alpha-1A adrenergic receptor (Homo sapiens, UniProt P35348)
# Sequence (P35348 whole entry): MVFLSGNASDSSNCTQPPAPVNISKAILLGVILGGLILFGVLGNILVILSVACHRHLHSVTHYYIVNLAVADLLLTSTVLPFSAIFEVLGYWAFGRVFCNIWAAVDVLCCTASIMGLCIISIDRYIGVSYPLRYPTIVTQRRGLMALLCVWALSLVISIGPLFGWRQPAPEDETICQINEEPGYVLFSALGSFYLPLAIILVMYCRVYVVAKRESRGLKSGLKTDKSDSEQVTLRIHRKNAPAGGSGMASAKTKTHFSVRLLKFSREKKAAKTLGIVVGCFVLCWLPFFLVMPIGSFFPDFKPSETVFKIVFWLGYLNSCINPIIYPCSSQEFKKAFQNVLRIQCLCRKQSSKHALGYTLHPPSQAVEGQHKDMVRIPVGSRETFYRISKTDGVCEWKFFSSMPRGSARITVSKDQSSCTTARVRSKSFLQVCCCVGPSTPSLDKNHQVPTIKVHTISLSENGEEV
property_measured: Ki (nM)
Please reply with the bare figure in nM and do not write the unit itself.

Recorded Ki of CC(C)(Cc1c[nH]c2ccc(Cl)cc12)NCCOc1ccccc1OCC1CC1 , please.
16

Data origin, for the record: BindingDB's records for doi:10.1021/jm0503751
